system: ncRNAs (SEQ ID NO 28-89); assay: ncRNA arrays of melanocytes, keratinocytes, normal skin, melanoma cell lines and patient samples; design: species or system human; settings: melanoma patient 2 sample compared to normal skin
Below, each of the substances is paired with its reported ncRNA array expression, patient 2 value.

{"substance": "SEQ ID NO 55 (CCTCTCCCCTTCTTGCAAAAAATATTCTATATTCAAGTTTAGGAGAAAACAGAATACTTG; listed as DNA, chemistry not given here; listed as Homo sapiens)", "ncRNA array expression, patient 2": "−1.54"}
{"substance": "SEQ ID NO 85 (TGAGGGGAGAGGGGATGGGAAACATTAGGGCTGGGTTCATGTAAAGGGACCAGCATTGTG; listed as DNA, chemistry not given here; listed as Homo sapiens)", "ncRNA array expression, patient 2": "−3.042"}
{"substance": "SEQ ID NO 35 (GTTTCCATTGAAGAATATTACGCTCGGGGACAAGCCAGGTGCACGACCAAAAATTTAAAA; DNA, backbone and methylation of C not given here; listed as Homo sapiens)", "ncRNA array expression, patient 2": 1.513}
{"substance": "SEQ ID NO 57 (TTGTTGTTTTGGGAGATACCCTGTTTAGCCTGAAAGGATTGAGATACTGTAATTGCTATG; listed as DNA, chemistry not given here; listed as Homo sapiens)", "ncRNA array expression, patient 2": 1.808}
{"substance": "SEQ ID NO 69 (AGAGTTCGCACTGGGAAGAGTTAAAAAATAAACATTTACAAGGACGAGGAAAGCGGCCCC; listed as DNA, chemistry not given here; listed as Homo sapiens)", "ncRNA array expression, patient 2": "−1.697"}

---

system: ncRNAs (SEQ ID NO 28-89); assay: ncRNA arrays of melanocytes, keratinocytes, normal skin, melanoma cell lines and patient samples; parameters: species or system human; conditions: melanoma patient 3 sample compared to normal skin
Below, each of the substances is paired with its reported ncRNA array expression, patient 3 value.

{"substance": "SEQ ID NO 68 (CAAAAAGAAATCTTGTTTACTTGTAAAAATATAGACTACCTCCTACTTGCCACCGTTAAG; listed as DNA, chemistry not given here; listed as Homo sapiens)", "studyTarget": "ncRNAs (SEQ ID NO 28-89)", "ncRNA array expression, patient 3": "−0.899"}
{"substance": "SEQ ID NO 28 (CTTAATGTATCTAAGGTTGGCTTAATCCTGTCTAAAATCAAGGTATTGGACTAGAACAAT; DNA, backbone and methylation of C not given here; listed as Homo sapiens)", "studyTarget": "ncRNAs (SEQ ID NO 28-89)", "ncRNA array expression, patient 3": 2.037}
{"substance": "SEQ ID NO 31 (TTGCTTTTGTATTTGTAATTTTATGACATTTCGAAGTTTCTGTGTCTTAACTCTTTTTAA; listed as DNA, chemistry not given here; listed as Homo sapiens)", "studyTarget": "ncRNAs (SEQ ID NO 28-89)", "ncRNA array expression, patient 3": 2.154}

---

tested on: ncRNAs (SEQ ID NO 28-89); experiment: ncRNA arrays of melanocytes, keratinocytes, normal skin, melanoma cell lines and patient samples; set-up: species or system human; settings: melanoma patient 9 sample compared to normal skin
Could you mark each record Criterion met if its ncRNA array expression, patient 9 falls strictly under -0.1, and Criterion not met if it equals or exceeds it?

{"substance": "SEQ ID NO 60 (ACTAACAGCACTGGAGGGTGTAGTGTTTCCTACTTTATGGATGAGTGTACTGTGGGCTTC; listed as DNA, chemistry not given here; listed as Homo sapiens)", "labelClass": "Criterion not met"}
{"substance": "SEQ ID NO 78 (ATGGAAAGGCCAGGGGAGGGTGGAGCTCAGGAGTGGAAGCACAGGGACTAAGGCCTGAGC; listed as DNA, chemistry not given here; listed as Homo sapiens)", "labelClass": "Criterion met"}
{"substance": "SEQ ID NO 54 (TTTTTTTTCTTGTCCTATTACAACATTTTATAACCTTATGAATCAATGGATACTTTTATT; listed as DNA, chemistry not given here; listed as Homo sapiens)", "labelClass": "Criterion met"}
{"substance": "SEQ ID NO 73 (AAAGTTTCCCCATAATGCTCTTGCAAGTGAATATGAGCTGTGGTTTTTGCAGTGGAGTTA; listed as DNA, chemistry not given here; listed as Homo sapiens)", "labelClass": "Criterion not met"}
{"substance": "SEQ ID NO 77 (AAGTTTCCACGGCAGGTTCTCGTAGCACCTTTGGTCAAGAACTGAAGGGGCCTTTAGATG; listed as DNA, chemistry not given here; listed as Homo sapiens)", "labelClass": "Criterion met"}

---

test system: ncRNAs (SEQ ID NO 28-89); assay: ncRNA arrays of melanocytes, keratinocytes, normal skin, melanoma cell lines and patient samples; design: species or system human; conditions: melanoma patient 21 sample compared to normal skin

{"substance": "SEQ ID NO 49 (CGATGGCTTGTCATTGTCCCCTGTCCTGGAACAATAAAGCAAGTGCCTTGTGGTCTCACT; listed as DNA, chemistry not given here; listed as Homo sapiens)", "studyTarget": "ncRNAs (SEQ ID NO 28-89)", "ncRNA array expression, patient 21": "−2.207"}
{"substance": "SEQ ID NO 82 (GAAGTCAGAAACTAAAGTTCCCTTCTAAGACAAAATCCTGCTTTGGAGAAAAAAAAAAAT; listed as DNA, chemistry not given here; listed as Homo sapiens)", "studyTarget": "ncRNAs (SEQ ID NO 28-89)", "ncRNA array expression, patient 21": "−3.1409"}
{"substance": "SEQ ID NO 43 (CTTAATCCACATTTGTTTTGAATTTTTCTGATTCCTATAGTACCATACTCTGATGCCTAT; listed as DNA, chemistry not given here; listed as Homo sapiens)", "studyTarget": "ncRNAs (SEQ ID NO 28-89)", "ncRNA array expression, patient 21": "−1.321"}

---

test system: ncRNAs (SEQ ID NO 28-89); experiment: ncRNA arrays of melanocytes, keratinocytes, normal skin, melanoma cell lines and patient samples; parameters: species or system human; conditions: melanoma patient 7 sample compared to normal skin
assayReadout: ncRNA array expression, patient 7

{"substance": "SEQ ID NO 36 (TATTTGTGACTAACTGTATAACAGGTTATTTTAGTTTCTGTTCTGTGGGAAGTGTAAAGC; listed as DNA, chemistry not given here; listed as Homo sapiens)", "assayReadout": "ncRNA array expression, patient 7", "value": 4.601}
{"substance": "SEQ ID NO 85 (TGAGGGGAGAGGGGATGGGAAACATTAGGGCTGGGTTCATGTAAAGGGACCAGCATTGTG; listed as DNA, chemistry not given here; listed as Homo sapiens)", "assayReadout": "ncRNA array expression, patient 7", "value": "−3.331"}
{"substance": "SEQ ID NO 81 (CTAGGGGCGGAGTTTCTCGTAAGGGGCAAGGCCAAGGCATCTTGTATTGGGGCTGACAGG; listed as DNA, chemistry not given here; listed as Homo sapiens)", "assayReadout": "ncRNA array expression, patient 7", "value": "−2.533"}
{"substance": "SEQ ID NO 84 (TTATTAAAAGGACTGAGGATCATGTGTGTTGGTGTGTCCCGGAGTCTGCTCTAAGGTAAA; listed as DNA, chemistry not given here; listed as Homo sapiens)", "assayReadout": "ncRNA array expression, patient 7", "value": 2.005}
{"substance": "SEQ ID NO 66 (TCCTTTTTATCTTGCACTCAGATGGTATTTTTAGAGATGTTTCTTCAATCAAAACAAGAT; listed as DNA, chemistry not given here; listed as Homo sapiens)", "assayReadout": "ncRNA array expression, patient 7", "value": 2.319}
{"substance": "SEQ ID NO 63 (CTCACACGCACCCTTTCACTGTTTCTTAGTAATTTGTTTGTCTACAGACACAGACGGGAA; listed as DNA, chemistry not given here; listed as Homo sapiens)", "assayReadout": "ncRNA array expression, patient 7", "value": "−1.305"}
{"substance": "SEQ ID NO 69 (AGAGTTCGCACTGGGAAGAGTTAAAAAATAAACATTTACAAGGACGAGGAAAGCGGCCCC; listed as DNA, chemistry not given here; listed as Homo sapiens)", "assayReadout": "ncRNA array expression, patient 7", "value": "−1.8141"}
{"substance": "SEQ ID NO 77 (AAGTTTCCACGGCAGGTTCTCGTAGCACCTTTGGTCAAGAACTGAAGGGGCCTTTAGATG; listed as DNA, chemistry not given here; listed as Homo sapiens)", "assayReadout": "ncRNA array expression, patient 7", "value": "−1.639"}
{"substance": "SEQ ID NO 28 (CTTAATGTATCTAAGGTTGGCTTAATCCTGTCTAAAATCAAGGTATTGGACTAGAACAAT; DNA, backbone and methylation of C not given here; listed as Homo sapiens)", "assayReadout": "ncRNA array expression, patient 7", "value": 2.032}
{"substance": "SEQ ID NO 64 (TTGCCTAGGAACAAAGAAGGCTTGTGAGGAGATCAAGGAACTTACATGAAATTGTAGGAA; listed as DNA, chemistry not given here; listed as Homo sapiens)", "assayReadout": "ncRNA array expression, patient 7", "value": 1.389}
